All values here come from PubChem BioAssay AID624330.

Reported inhibition values for the following compounds.
Molecular target: Rac GTPase-activating protein 1 (Homo sapiens) (UniProt Q9H0H5)
Sequence (Q9H0H5 whole entry, looked up): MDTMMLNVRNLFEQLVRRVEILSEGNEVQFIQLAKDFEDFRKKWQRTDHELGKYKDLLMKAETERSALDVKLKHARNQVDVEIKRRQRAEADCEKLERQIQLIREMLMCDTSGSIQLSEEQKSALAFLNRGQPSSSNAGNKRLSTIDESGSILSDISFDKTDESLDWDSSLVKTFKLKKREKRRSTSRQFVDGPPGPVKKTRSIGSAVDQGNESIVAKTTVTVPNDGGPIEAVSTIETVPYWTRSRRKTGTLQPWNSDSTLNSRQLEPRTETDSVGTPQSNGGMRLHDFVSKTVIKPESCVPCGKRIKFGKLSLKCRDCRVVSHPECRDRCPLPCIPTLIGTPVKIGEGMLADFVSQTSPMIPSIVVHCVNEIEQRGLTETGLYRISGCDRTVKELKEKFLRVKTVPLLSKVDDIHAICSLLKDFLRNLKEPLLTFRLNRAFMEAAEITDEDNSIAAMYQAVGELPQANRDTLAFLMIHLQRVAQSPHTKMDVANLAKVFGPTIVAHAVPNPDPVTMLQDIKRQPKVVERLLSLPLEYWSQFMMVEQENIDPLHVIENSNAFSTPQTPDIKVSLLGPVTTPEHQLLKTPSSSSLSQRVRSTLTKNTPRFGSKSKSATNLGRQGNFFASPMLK
Test: blockers of MgcRacGAP-driven Rac1 GTP hydrolysis – biochemical, ADP Hunter fluorescence, primary and confirmatory, confirmation (AID 624330);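 also: fluorescence reports GDP produced by GAP-driven GTP hydrolysis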
Settings: MgcRacGAP-stimulated Rac1 GTP hydrolysis, at 30 µM, active compounds read high, GST-tagged Rac1 F28L mutant substrate
About 2,100 (0.62%) of roughly 340,000 compounds were called active. A selection follows. Measured potencies and affinities stand elsewhere.
Report the figure in % without appending any unit label.

Consider the compound shown here: N#CCCN(Cc1cccnc1)C(=S)NC(=O)c1ccco1 What is its recorded inhibition?
5.92

Please answer likewise for COc1ccc(-c2n[nH]c(C)c2-c2cnn(-c3ccccc3)c2)c(O)c1C
6.48

Please answer likewise for Clc1cccc(CSc2ncnc3c2ncn3C2CCCCO2)c1 (stereo unspecified)
2.71
